Numbers sourced from ChEMBL document CHEMBL5038653.

assay protocol: Volume of distribution at steady state in rat at 0.25 mg/kg, iv
Format: ADME, organism-based
stated conditions: in vivo, read-out: Vdss
reported property: Vd (L/kg)
One number for each entry, in L/kg.

Query :: Recorded Vd of COc1cnc(C(=O)Nc2ccc(F)c([C@]3(C)Cn4nc(C#N)cc4C(N)=N3)c2)cn1 , please.
Result :: 5.3

---

assay protocol: AUC (0 to last) in rat at 2.5 mg/kg, po
Assay type: ADME, organism-based
Set-up: route oral, time 0 - last, dose 2.5 mg/kg
stated conditions: in vivo
reported property: AUClast (ng·h/mL)
Numbers only, in ng·h/mL.

Query :: Recorded AUClast of COc1cnc(C(=O)Nc2ccc(F)c([C@]3(C)Cn4nc(C#N)cc4C(N)=N3)c2)cn1 , please.
Result :: 3840
